- System: HCC 2998
- Protocol Summary: NCI tumour cell line growth inhibition, 48 h
Calls of active or inactive are those of the source. Cut-off read from the data, not from the text of the source: active = GI50 up to about 1.1 µM and inactive = higher.
GI50 for assorted compounds
Measurement Kind: GI50

compound=CN(/N=C/c1ccccn1)C1=NCCN1 measurement_kind=GI50 result="> 100 µM (inactive)"
compound=CC1(C)OCC(CO)(CO)CO1 measurement_kind=GI50 result="> 100 µM (inactive)"
compound="O=C1CC(c2ccc(Cl)cc2)C2(C(=O)NC(=O)NC2=O)C(c2ccc(Cl)cc2)C1 (stereo unspecified)" measurement_kind=GI50 result="27.9 µM (inactive)"
compound="O=C(O)C(Cc1ccccc1)NCc1c(O)ccc2c(-c3ccccc3)cc(=O)oc12 (stereo unspecified)" measurement_kind=GI50 result="> 100 µM (inactive)"
compound="Cc1ccc2nc(-c3nccn3C)cc(C(=O)NC(C)CN(C)C)c2c1 (stereo unspecified)" measurement_kind=GI50 result="> 10 µM (inactive)"
compound=CCOC(=O)C=C1CCN(C(=O)c2ccccc2)CC1 measurement_kind=GI50 result="> 100 µM (inactive)"
